System: Bacteroides fragilis
EXPERIMENT_SUMMARY: In vitro antimicrobial activity against anaerobic bacteria bacteroides fragilis 1936B,
Type: functional
Measured MIC of individual entries
The reply should consist of the numeric value with the unit placed after it.

Name the reported MIC value associated with the compound "CC[C@H]1OC(=O)C[C@@H](O)[C@H](C)[C@@H](O[C@@H]2O[C@H](C)[C@@H](O)[C@H](N(C)C)[C@H]2O)[C@@H](CCCl)C[C@@H](C)C(=O)/C=C/C(C)=C/[C@@H]1CO[C@@H]1O[C@H](C)[C@@H](O)[C@@H](OC)[C@H]1OC" 2 µg/mL

Name the reported MIC value associated with the compound "CC[C@H]1OC(=O)C[C@@H](O)[C@H](C)[C@@H](O[C@@H]2O[C@H](C)[C@@H](O)[C@H](N(C)C)[C@H]2O)[C@@H](CC=O)C[C@@H](C)C(=O)/C=C/C(C)=C/[C@@H]1CO[C@@H]1O[C@H](C)[C@@H](O)[C@@H](OC)[C@H]1OC" 8 µg/mL

Name the reported MIC value associated with the compound "CC[C@H]1OC(=O)C[C@@H](O)[C@H](C)[C@@H](O[C@@H]2O[C@H](C)[C@@H](O[C@H]3C[C@@](C)(O)[C@@H](O)[C@H](C)O3)[C@H](N(C)C)[C@H]2O)[C@@H](CC=O)C[C@@H](C)C(=O)/C=C/C(C)=C/[C@@H]1CO" 2 µg/mL

###

Tested on: Staphylococcus aureus
EXPERIMENT_SUMMARY: In vitro antimicrobial activity against Staphylococcus aureus X1
Type: functional
Measured MIC of individual entries
Please respond with the number in µg/mL and leave the unit unwritten.

Known results for compounds:
SMILES_ENTRY: CC[C@H]1OC(=O)C[C@@H](O)[C@H](C)[C@@H](O[C@@H]2O[C@H](C)[C@@H](O)[C@H](N(C)C)[C@H]2O)[C@@H](CCNCCc2ccccc2)C[C@@H](C)C(=O)/C=C/C(C)=C/[C@@H]1CO
READOUT_NUMBER: 4

SMILES_ENTRY: CC[C@H]1OC(=O)C[C@@H](O)[C@H](C)[C@@H](O[C@@H]2O[C@H](C)[C@@H](O)[C@H](N(C)C)[C@H]2O)[C@@H](CCO)C[C@@H](C)C(=O)/C=C/C(C)=C/[C@@H]1C
READOUT_NUMBER: 4

SMILES_ENTRY: CC[C@H]1OC(=O)C[C@@H](O)[C@H](C)[C@@H](O[C@@H]2O[C@H](C)[C@@H](O)[C@H](N(C)C)[C@H]2O)[C@@H](CCBr)C[C@@H](C)C(=O)/C=C/C(C)=C/[C@@H]1CO[C@@H]1O[C@H](C)[C@@H](O)[C@@H](OC)[C@H]1OC
READOUT_NUMBER: 0.25

SMILES_ENTRY: CC[C@H]1OC(=O)C[C@@H](O)[C@H](C)[C@@H](O[C@@H]2O[C@H](C)[C@@H](O)[C@H](N(C)C)[C@H]2O)[C@@H](CCSc2nnnn2C)C[C@@H](C)C(=O)/C=C/C(C)=C/[C@@H]1CO[C@@H]1O[C@H](C)[C@@H](O)[C@@H](OC)[C@H]1OC
READOUT_NUMBER: 0.5

SMILES_ENTRY: CC[C@H]1OC(=O)C[C@@H](O)[C@H](C)[C@@H](O[C@@H]2O[C@H](C)[C@@H](O)[C@H](N(C)C)[C@H]2O)[C@@H](CCOc2ccc(Oc3ccccc3)cc2)C[C@@H](C)C(=O)/C=C/C(C)=C/[C@@H]1CO[C@@H]1O[C@H](C)[C@@H](O)[C@@H](OC)[C@H]1OC
READOUT_NUMBER: 0.5

SMILES_ENTRY: CC[C@H]1OC(=O)C[C@@H](O)[C@H](C)[C@@H](O[C@@H]2O[C@H](C)[C@@H](O)[C@H](N(C)C)[C@H]2O)[C@@H](CCN=[N+]=[N-])C[C@@H](C)C(=O)/C=C/C(C)=C/[C@@H]1CO[C@@H]1O[C@H](C)[C@@H](O)[C@@H](OC)[C@H]1OC
READOUT_NUMBER: 0.12

SMILES_ENTRY: CC[C@H]1OC(=O)C[C@@H](O)[C@H](C)[C@@H](O[C@@H]2O[C@H](C)[C@@H](O)[C@H](N(C)C)[C@H]2O)[C@@H](CCOc2ccc(C=O)cc2)C[C@@H](C)C(=O)/C=C/C(C)=C/[C@@H]1CO[C@@H]1O[C@H](C)[C@@H](O)[C@@H](OC)[C@H]1OC
READOUT_NUMBER: 0.25

Name the reported MIC value associated with the compound "CC[C@H]1OC(=O)C[C@@H](O)[C@H](C)[C@@H](O[C@@H]2O[C@H](C)[C@@H](O)[C@H](N(C)C)[C@H]2O)[C@@H](CCOc2ncnc3ccccc23)C[C@@H](C)C(=O)/C=C/C(C)=C/[C@@H]1CO[C@@H]1O[C@H](C)[C@@H](O)[C@@H](OC)[C@H]1OC" 0.25

###

Test system: Fusobacterium
EXPERIMENT_SUMMARY: In vitro antimicrobial activity against anaerobic bacteria fusobacterium symbiosum 1470
Format: functional
PARAMETER_MEASURED: MIC (µg/mL)
Please respond with the number in µg/mL and leave the unit unwritten.

Known results for compounds:
SMILES_ENTRY: CC[C@H]1OC(=O)C[C@@H](O)[C@H](C)[C@@H](O[C@@H]2O[C@H](C)[C@@H](O)[C@H](N(C)C)[C@H]2O)[C@@H](CC=O)C[C@@H](C)C(=O)/C=C/C(C)=C/[C@@H]1CO[C@@H]1O[C@H](C)[C@@H](O)[C@@H](OC)[C@H]1OC
READOUT_NUMBER: 2

SMILES_ENTRY: CC[C@H]1OC(=O)C[C@@H](O)[C@H](C)[C@@H](O[C@@H]2O[C@H](C)[C@@H](O[C@H]3C[C@@](C)(O)[C@@H](O)[C@H](C)O3)[C@H](N(C)C)[C@H]2O)[C@@H](CCCl)C[C@@H](C)C(=O)/C=C/C(C)=C/[C@@H]1CO[C@@H]1O[C@H](C)[C@@H](O)[C@@H](OC)[C@H]1OC
READOUT_NUMBER: 4

SMILES_ENTRY: CC[C@H]1OC(=O)[C@H](C)[C@@H](O[C@H]2C[C@@](C)(OC)[C@@H](O)[C@H](C)O2)[C@H](C)[C@@H](O[C@@H]2O[C@H](C)C[C@H](N(C)C)[C@H]2O)[C@](C)(O)C[C@@H](C)C(=O)[C@H](C)[C@@H](O)[C@]1(C)O
READOUT_NUMBER: 2

SMILES_ENTRY: CC[C@H]1OC(=O)C[C@@H](O)[C@H](C)[C@@H](O[C@@H]2O[C@H](C)[C@@H](O)[C@H](N(C)C)[C@H]2O)[C@@H](CCOc2ccc(-c3ccccc3)cc2)C[C@@H](C)C(=O)/C=C/C(C)=C/[C@@H]1CO[C@@H]1O[C@H](C)[C@@H](O)[C@@H](OC)[C@H]1OC
READOUT_NUMBER: 2

SMILES_ENTRY: CC[C@H]1C[C@@H](C)C(=O)/C=C/C(C)=C/[C@H](CO[C@@H]2O[C@H](C)[C@@H](O)[C@@H](OC)[C@H]2OC)[C@@H](CC)OC(=O)C[C@@H](O)[C@H](C)[C@H]1O[C@@H]1O[C@H](C)[C@@H](O)[C@H](N(C)C)[C@H]1O
READOUT_NUMBER: 2

SMILES_ENTRY: CC[C@H]1OC(=O)C[C@@H](O)[C@H](C)[C@@H](O[C@@H]2O[C@H](C)[C@@H](O)[C@H](N(C)C)[C@H]2O)[C@@H](CCN=[N+]=[N-])C[C@@H](C)C(=O)/C=C/C(C)=C/[C@@H]1CO[C@@H]1O[C@H](C)[C@@H](O)[C@@H](OC)[C@H]1OC
READOUT_NUMBER: 2

Checklist item: MIC tested on Fusobacterium, entry "CC[C@H]1OC(=O)C[C@@H](O)[C@H](C)[C@@H](O[C@@H]2O[C@H](C)[C@@H](O)[C@H](N(C)C)[C@H]2O)[C@@H](CCOc2ccc(C(=O)c3ccccc3)cc2)C[C@@H](C)C(=O)/C=C/C(C)=C/[C@@H]1CO[C@@H]1O[C@H](C)[C@@H](O)[C@@H](OC)[C@H]1OC" , value? 2

Checklist item: MIC tested on Fusobacterium, entry "CC[C@H]1OC(=O)C[C@@H](O)[C@H](C)[C@@H](O[C@@H]2O[C@H](C)[C@@H](O)[C@H](N(C)C)[C@H]2O)[C@@H](CCOc2ccccc2)C[C@@H](C)C(=O)/C=C/C(C)=C/[C@@H]1CO[C@@H]1O[C@H](C)[C@@H](O)[C@@H](OC)[C@H]1OC" , value? 1

###

Test system: Streptococcus pyogenes
EXPERIMENT_SUMMARY: In vitro antimicrobial activity against Streptococcus pyogenes C203
Format: functional
Measured MIC of individual entries
Please respond with the number in µg/mL and leave the unit unwritten.

SMILES_ENTRY: CC[C@H]1OC(=O)C[C@@H](O)[C@H](C)[C@@H](O[C@@H]2O[C@H](C)[C@@H](O)[C@H](N(C)C)[C@H]2O)[C@@H](CCN2CCCCCCC2)C[C@@H](C)C(=O)/C=C/C(C)=C/[C@@H]1CO[C@@H]1O[C@H](C)[C@@H](O)[C@@H](OC)[C@H]1OC
EXPERIMENTAL_TARGET: Streptococcus pyogenes
READOUT_NUMBER: 0.25

Now for another entry.
Name the reported MIC value associated with the molecule "CC[C@H]1OC(=O)C[C@@H](O)[C@H](C)[C@@H](O[C@@H]2O[C@H](C)[C@@H](O)[C@H](N(C)C)[C@H]2O)[C@@H](CCN2C(=O)c3ccccc3C2=O)C[C@@H](C)C(=O)/C=C/C(C)=C/[C@@H]1CO[C@@H]1O[C@H](C)[C@@H](O)[C@@H](OC)[C@H]1OC" 0.25
